- assay.method.text: Mouse pharmacokinetics, plasma levels (LC-MS/MS)
- Type: in vivo
- condition.context: mouse, plasma, Table 11, footnote: excluding IRN12 result, read-out: AUC(0-8 h)
assay.endpoint: AUC(0-t)
State the value with its unit after it.

Query :: Need AUC(0-t), item Nc1nc(-c2c(Cl)cc(Cl)c3c2CCO3)c2[nH]ccc2n1 [compound 20]
Result :: 27000 ng·h/mL

---

- assay.method.text: Mouse pharmacokinetics, plasma levels (LC-MS/MS)
- Type: in vivo
- condition.context: mouse, plasma, 0.50 h, read-out: Mean Group Concentration, plasma
assay.endpoint: concentration at 0.5 h (ng/mL)
Hi! Could you send only the number? It should be in ng/mL, unit omitted.

Query :: Need concentration at 0.5 h, item Nc1nc(-c2c(Cl)cc(Cl)c3c2CCO3)c2[nH]ccc2n1
Result :: 11000

---

- assay.method.text: Mouse pharmacokinetics, brain tissue levels (LC-MS/MS)
- Type: in vivo
- condition.context: mouse, brain homogenate, mouse brain homogenate, 0.25 h, incl. IRN 12; read-out: Mean Group Concentration, Homogenate
assay.endpoint: concentration at 0.25 h (ng/mL)
Hi! Could you send only the number? It should be in ng/mL, unit omitted.

Query :: Need concentration at 0.25 h, item Nc1nc(-c2c(Cl)cc(Cl)c3c2CCO3)c2[nH]ccc2n1
Result :: 1180

---

- assay.method.text: Mouse pharmacokinetics, plasma levels (LC-MS/MS)
- Type: in vivo
- condition.context: mouse, plasma, Table 12, footnote: including IRN12 result, read-out: Half life (t1/2) (converted)
assay.endpoint: half-life
State the value with its unit after it.

Query :: Need half-life, item Nc1nc(-c2c(Cl)cc(Cl)c3c2CCO3)c2[nH]ccc2n1
Result :: 57 min

---

- assay.method.text: Mouse pharmacokinetics, brain tissue levels (LC-MS/MS)
- Type: in vivo
- condition.context: mouse, brain, mouse brain, 2 hours post dose (E_2); read-out: Brain concentration, individual animals
assay.endpoint: concentration at 2 h (ng/g)
Hi! Could you send only the number? It should be in ng/g, unit omitted.

Query :: Need concentration at 2 h, item Nc1nc(-c2c(Cl)cc(Cl)c3c2CCO3)c2[nH]ccc2n1 [compound 20]
Result :: 3600

---

- assay.method.text: Mouse pharmacokinetics, brain tissue levels (LC-MS/MS)
- Assay type: in vivo
- condition.context: mouse, brain, mouse brain tissue, 8.00 h; read-out: Mean Group Concentration, Tissue
- Procedure: Plasma and brain samples were taken pre-dose and at post dose time points of pre-dose, 15 and 30 minutes, 1, 2, and 8 hours. The pre-dose group was represented by 5 animals, whereas the post-dose groups were represented by 3 animals. Bioanalysis of mouse plasma samples for compound 20 was conducted by protein precipitation and LC-MS/MS with compound 22 as the internal standard. […]
assay.endpoint: concentration at 8 h (ng/g)
Hi! Could you send only the number? It should be in ng/g, unit omitted.

Query :: Need concentration at 8 h, item Nc1nc(-c2c(Cl)cc(Cl)c3c2CCO3)c2[nH]ccc2n1
Result :: 30

---

- assay.method.text: Mouse pharmacokinetics, brain tissue levels (LC-MS/MS)
- Assay type: in vivo
- condition.context: mouse brain tissue; Table 14, footnote: excluding IRN 12 result; read-out: AUC(0-8 h)
assay.endpoint: AUC(0-t) (µg·h/mL)
Hi! Could you send only the number? It should be in µg·h/mL, unit omitted.

Query :: Need AUC(0-t), item Nc1nc(-c2c(Cl)cc(Cl)c3c2CCO3)c2[nH]ccc2n1
Result :: 22.9
